target or system: T1, rHuman Notch-1/Fc Chimera, CF (human, UniProt P46531 19-526)
T1 construct: Bought from R&D Systems; not shown: Fc of the bought chimera
assay remarks: ECL Multispot (MSD) assay; antigen spotted on plate, Fab in solution;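 further: fab bound 1 h at 20 °C, detected by TAG-labelled antibody electrochemiluminescence, signal relative to each well's blank, ratio of 4 or more marks a hit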
quantity name: ECL signal
Note: the reply should be a number with no unit written.

Recorded ECL signal, per entry:
Fab VH1-46_IGHD6-6*01_IGHJ1*01 S102A/S103P/S104F/H111F (APFF) & L6_IGKJ1*01 S28V (Fab, V domains shown, Fab made in E. coli; the variable domains were cloned into Plasmid A (CH1, His and Flag tags) and Plasmid C (kappa CL); also called APFF / S28V) VH: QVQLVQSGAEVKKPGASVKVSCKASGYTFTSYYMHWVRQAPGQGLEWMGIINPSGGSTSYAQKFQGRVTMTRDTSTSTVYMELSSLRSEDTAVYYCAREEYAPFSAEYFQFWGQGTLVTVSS VL: EIVLTQSPATLSLSPGERATLSCRASQVVSSYLAWYQQKPGQAPRLLIYDASNRATGIPARFSGSGSGTDFTLTISSLEPEDFAVYYCQQRSNWPPWTFGQGTKVEIKR = 289
Fab VH1-46_IGHD6-6*01_IGHJ1*01 S102A/S103P/S104F/H111F (APFF) & L6_IGKJ1*01 S28Q (Fab, V domains shown, Fab made in E. coli; the variable domains were cloned into Plasmid A (CH1, His and Flag tags) and Plasmid C (kappa CL); also called APFF / S28Q) VH: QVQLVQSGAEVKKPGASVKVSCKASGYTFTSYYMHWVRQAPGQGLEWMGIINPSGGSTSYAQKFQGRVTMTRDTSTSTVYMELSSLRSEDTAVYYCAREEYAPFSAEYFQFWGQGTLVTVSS VL: EIVLTQSPATLSLSPGERATLSCRASQQVSSYLAWYQQKPGQAPRLLIYDASNRATGIPARFSGSGSGTDFTLTISSLEPEDFAVYYCQQRSNWPPWTFGQGTKVEIKR = 331
Fab VH1-46_IGHD6-6*01_IGHJ1*01 S102A/S103P/S104F/H111F (APFF) & L6_IGKJ1*01 S28G (Fab, V domains shown, Fab made in E. coli; the variable domains were cloned into Plasmid A (CH1, His and Flag tags) and Plasmid C (kappa CL); also called APFF / S28G) VH: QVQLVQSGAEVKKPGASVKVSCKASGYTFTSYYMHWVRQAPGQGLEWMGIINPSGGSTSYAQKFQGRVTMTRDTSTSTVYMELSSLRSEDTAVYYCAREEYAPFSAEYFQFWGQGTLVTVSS VL: EIVLTQSPATLSLSPGERATLSCRASQGVSSYLAWYQQKPGQAPRLLIYDASNRATGIPARFSGSGSGTDFTLTISSLEPEDFAVYYCQQRSNWPPWTFGQGTKVEIKR = 324

Lookup: Look up ECL signal for this binder: Fab VH1-46_IGHD6-6*01_IGHJ1*01 S102A/S103P/S104F/H111F (APFF) & L6_IGKJ1*01 S28P (Fab, V domains shown, Fab made in E. coli; the variable domains were cloned into Plasmid A (CH1, His and Flag tags) and Plasmid C (kappa CL); also called APFF / S28P) VH: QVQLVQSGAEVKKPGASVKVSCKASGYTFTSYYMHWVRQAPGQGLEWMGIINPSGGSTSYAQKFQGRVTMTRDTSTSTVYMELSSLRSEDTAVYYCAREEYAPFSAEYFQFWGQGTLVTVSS VL: EIVLTQSPATLSLSPGERATLSCRASQPVSSYLAWYQQKPGQAPRLLIYDASNRATGIPARFSGSGSGTDFTLTISSLEPEDFAVYYCQQRSNWPPWTFGQGTKVEIKR
Found: 416

Lookup: I am curious: what ECL signal value has been reported for Fab VH1-46_IGHD6-6*01_IGHJ1*01 S102A/S103P/S104F/H111F (APFF) & L6_IGKJ1*01 S28K (Fab, V domains shown, Fab made in E. coli; the variable domains were cloned into Plasmid A (CH1, His and Flag tags) and Plasmid C (kappa CL); also called APFF / S28K) VH: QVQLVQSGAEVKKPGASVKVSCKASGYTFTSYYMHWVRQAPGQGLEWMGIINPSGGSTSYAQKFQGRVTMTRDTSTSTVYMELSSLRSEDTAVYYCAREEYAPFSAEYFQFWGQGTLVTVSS VL: EIVLTQSPATLSLSPGERATLSCRASQKVSSYLAWYQQKPGQAPRLLIYDASNRATGIPARFSGSGSGTDFTLTISSLEPEDFAVYYCQQRSNWPPWTFGQGTKVEIKR ?
Found: 395
